I'd appreciate it if you could supply kon values for the items below.
# targetDesc: T1, hFc-hROR1 (extracellular domain of human ROR1 fused to the Fc domain of human IgG1) (human, UniProt Q01973 30-406)
# T1 construct: extracellular domain; also called hFc-ROR1; not shown: Fc domain of human IgG1
# T1 sequence (Q01973 30-406): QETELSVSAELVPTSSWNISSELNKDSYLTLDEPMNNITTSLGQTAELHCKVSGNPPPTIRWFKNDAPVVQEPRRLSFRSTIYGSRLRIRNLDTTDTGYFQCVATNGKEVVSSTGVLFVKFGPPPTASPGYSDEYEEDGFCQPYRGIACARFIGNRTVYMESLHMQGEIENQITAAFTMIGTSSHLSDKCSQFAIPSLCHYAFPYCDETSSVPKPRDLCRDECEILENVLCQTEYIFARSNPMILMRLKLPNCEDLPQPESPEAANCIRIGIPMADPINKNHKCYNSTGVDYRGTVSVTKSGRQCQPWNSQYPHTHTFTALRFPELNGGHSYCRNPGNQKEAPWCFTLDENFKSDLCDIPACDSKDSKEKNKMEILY
# protocolDetails: SPR (Biacore X100); hFc-hROR1 captured by anti-human Fcγ antibody on CM5; Fab as analyte; 1:1 Langmuir fit
Lab book: enter the figure in M⁻¹ s⁻¹, no units written.

get_value(item= ERR1-409 chimeric rabbit/human Fab (Fab, V domains shown, Chimeric rabbit/human Fab with His tag, expressed in E. coli (pET11a); lambda light chain) VH: QEQLVESGGRLVTPGGSLTLTCTASGFSLSSYYMGWVRQAPGKGLEWIGTIYGGSGSTWYASWVKGRFTISKTSTAVDLKITSLTTEDTATYFCARSYPGWTTEPYFDIWGPGTLVTVSS VL: QFVLTQPQSVSGSLGQTVSISCNRDSGNIEDYYVHWYQQHPGKAPTTVIYNDDQRPSGVPDRFSGSIDSTSNSASLTITGLLAEDEADYYCLSSDSSAYVFGGGTQLTVTG , readout=kon) returns 57500

Lab note: ERR1-TOP4 chimeric rabbit/human Fab (Fab, V domains shown, Chimeric rabbit/human Fab with His tag, expressed in E. coli (pET11a); lambda light chain) VH: QSVEESGGRLVTPGTPLTLTCTASGIDLSRYAVNWVRQAPGKGLEWIGVISGSGTTYYASWAKGRFTISKTSTTVDLKITSPTTEDTATYFCARGWATDGIFDYDDTFNLWGPGTLVTVSS VL: SYELTQLPSVSVSLGQTARITCGGDSIESKAVHWYQQKPGLAPGLLVYNDDERPSGVPDRFSGSNSGDTATLTISGAQAGDEADYYCQLWDGSAYVFGGGTQLTVTG gave kon of 247000

The binder listed as ERR1-TOP54 chimeric rabbit/human Fab (Fab, V domains shown, Chimeric rabbit/human Fab with His tag, expressed in E. coli (pET11a); lambda light chain) VH: QSLEESGGRLVTPGTPLTLTCTASGFSLSDYYMSWVRQAPGEGLEWIGTIYGGSGNTWYATWAKGRFTISKTSTTVDLKITSPTTEDTATYFCARDFGLSTGGLWGPGTLVTISS VL: SYELTQLPSVSVSLGQTARITCGGNSIGSKAVNWYQQKPGLAPGLLIYDDDERPSGVPDRFSGSNSGDTATLTISGAQAGDEADYYCQLWDSSARAFVFGGGTQLTVTG shows kon equal to 475000

In plain terms, ERR1-403 chimeric rabbit/human Fab (Fab, V domains shown, Chimeric rabbit/human Fab with His tag, expressed in E. coli (pET11a); lambda light chain) VH: QEQLKESGRGLVQPGGSLKLSCKASGFDFSGWYMTWVRQAPGKGLEWIGTIGTTKGRTYYASWVNGRFTISSNAQNTVDLQMNSLTAADRATYFCVRGSDYFDLWGPGTLVTISS VL: SYELTQLPSVSVSLGQTARITCGGNSIGSKAVNWYQQKPGLAPGLLIYDDDERPSGVPARFSGSNSGDTATLTISGAQAGDEADYYCQLWDSSAGAYVFGGGTQLTVTG has a documented kon of 30800

Values from patent US20220153839A1
